Target: Alpha-2A adrenergic receptor (Homo sapiens); further: assay procedure not described here
Sequence (P08913 whole entry): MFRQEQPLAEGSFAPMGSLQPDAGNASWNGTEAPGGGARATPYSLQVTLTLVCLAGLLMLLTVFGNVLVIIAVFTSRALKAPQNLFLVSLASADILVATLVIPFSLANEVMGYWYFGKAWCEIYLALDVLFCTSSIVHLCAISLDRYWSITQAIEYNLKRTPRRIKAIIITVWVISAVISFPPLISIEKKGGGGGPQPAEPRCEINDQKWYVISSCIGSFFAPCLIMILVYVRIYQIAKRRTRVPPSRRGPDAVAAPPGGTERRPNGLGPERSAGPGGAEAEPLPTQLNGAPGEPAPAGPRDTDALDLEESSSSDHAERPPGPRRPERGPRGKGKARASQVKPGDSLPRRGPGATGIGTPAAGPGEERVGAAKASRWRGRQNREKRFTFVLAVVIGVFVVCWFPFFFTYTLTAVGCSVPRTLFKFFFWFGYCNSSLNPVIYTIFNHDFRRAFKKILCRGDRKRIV
Catalogue of compounds with associated AC50

Worked set:
Chemical Structure: CO[C@H]1/C=C/O[C@@]2(C)Oc3c(C)c(O)c4c(c3C2=O)C2=NC3(CCN(CC(C)C)CC3)NC2=C(NC(=O)/C(C)=C\C=C\[C@H](C)[C@H](O)[C@@H](C)[C@@H](O)[C@@H](C)[C@H](OC(C)=O)[C@@H]1C)C4=O
System: Alpha-2A adrenergic receptor (Homo sapiens); further: assay procedure not described here
AC50: > 30 µM

Chemical Structure: O=c1[nH]cc(F)c(=O)[nH]1
System: Alpha-2A adrenergic receptor (Homo sapiens); further: assay procedure not described here
AC50: > 30 µM

Switching to the query record.
Query block: Suppose we examine the compound `O=C(O)[C@@H](S)[C@@H](S)C(=O)O` ; what AC50 value has been reported?
Result block: > 30 µM

* * *

Recorded AC50 values (Beta-2 adrenergic receptor (Homo sapiens, UniProt P07550)) are given below.

Compound: CC(=O)[C@@]1(O)CC[C@H]2[C@@H]3C[C@H](C)C4=CC(=O)C=C[C@]4(C)[C@@]3(F)[C@@H](O)C[C@@]21C
AC50: > 10 µM
//
Compound: CC(C)(N)Cc1ccccc1
AC50: > 10 µM
//
Compound: CN(C)CCN(Cc1ccccc1)c1ccccn1
AC50: > 30 µM

Query block: Suppose we examine the compound `OCC(CO)N[C@H]1C[C@](O)(CO)[C@@H](O)[C@H](O)[C@H]1O` ; what AC50 value has been reported?
Result block: > 30 µM

Query block: Suppose we examine the compound `NCCCNCCSP(=O)(O)O` ; what AC50 value has been reported?
Result block: > 30 µM

Query block: Suppose we examine the compound `CN(C)CCC=C1c2ccccc2CCc2ccccc21` ; what AC50 value has been reported?
Result block: 21.1 µM

Query block: Suppose we examine the compound CN1C2CCCC1CC(NC(=O)c1nn(C)c3ccccc13)C2 (stereo not given) ; what AC50 value has been reported?
Result block: > 10 µM

Query block: Suppose we examine the compound `CO/N=C(\C(=O)N[C@@H]1C(=O)N2C(C(=O)O)=C(CSc3nc(C)c(CC(=O)O)s3)CS[C@H]12)c1csc(N)n1` ; what AC50 value has been reported?
Result block: > 30 µM

Query block: Suppose we examine the compound CC(C)(Oc1ccc(Cl)cc1)C(=O)OCCOC(=O)c1cccnc1 [ETOFIBRATE] ; what AC50 value has been reported?
Result block: > 30 µM

Query block: Suppose we examine the compound `C[C@]12CCC(=O)C=C1[C@@H]1C[C@@H]1[C@H]1[C@@H]3[C@@H]4C[C@@H]4[C@@]4(CCC(=O)O4)[C@@]3(C)CC[C@@H]12` ; what AC50 value has been reported?
Result block: > 30 µM

* * *

Biological target: Muscarinic acetylcholine receptor M1 (Homo sapiens, UniProt P11229)
Sequence (P11229 whole entry): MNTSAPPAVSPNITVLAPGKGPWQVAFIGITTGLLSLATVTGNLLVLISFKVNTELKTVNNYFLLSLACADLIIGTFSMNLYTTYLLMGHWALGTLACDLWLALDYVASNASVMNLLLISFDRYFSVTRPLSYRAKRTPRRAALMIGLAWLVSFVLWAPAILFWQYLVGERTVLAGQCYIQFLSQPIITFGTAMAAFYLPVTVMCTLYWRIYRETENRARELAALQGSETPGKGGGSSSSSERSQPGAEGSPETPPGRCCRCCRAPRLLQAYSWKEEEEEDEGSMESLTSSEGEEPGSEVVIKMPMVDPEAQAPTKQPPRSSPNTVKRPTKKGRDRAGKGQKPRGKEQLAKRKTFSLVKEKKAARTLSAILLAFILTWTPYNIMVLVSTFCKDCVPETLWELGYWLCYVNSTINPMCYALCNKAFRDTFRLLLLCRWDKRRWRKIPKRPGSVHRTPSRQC
Type: functional, cell-based
Value Kind: AC50

Worked set:
Compound: CCOc1ccc(Cc2nccc3cc(OCC)c(OCC)cc23)cc1OCC
Result: 1.66 µM
--
Compound: CC1(C)CCC(C)(C)c2cc(NC(=O)c3ccc(C(=O)O)cc3)ccc21
Result: > 10 µM
--
Compound: CCn1c(=O)c2c(nc(/C=C/c3ccc(OC)c(OC)c3)n2C)n(CC)c1=O
Result: > 30 µM
--
Compound: Cc1ccc(O)c([C@H](CCN(C(C)C)C(C)C)c2ccccc2)c1
Result: 0.0206 µM
--
Compound: Cc1cccc(C)c1NC(=O)c1cc(S(N)(=O)=O)c(Cl)cc1O [XIPAMIDE]
Result: > 30 µM
--
Compound: COc1ccc(C(=O)c2ccccc2)c(O)c1
Result: > 10 µM
--
Compound: O=C(O)[C@H](O)[C@@H](O)[C@H](O)[C@H](O)CO
Result: > 30 µM
--
Compound: Cc1c(C(C)C)c(=O)n(-c2ccccc2)n1C
Result: > 30 µM

Query block: Suppose we examine the compound `NC(=O)C1(N2CCCCC2)CCN(CCCC(=O)c2ccc(F)cc2)CC1` ; what AC50 value has been reported?
Result block: > 30 µM

Query block: Suppose we examine the compound `COC(=O)N[C@H](C(=O)N1CC2(CC2)C[C@H]1c1ncc(-c2ccc3c(c2)C(F)(F)c2cc(-c4ccc5nc([C@@H]6[C@H]7CC[C@H](C7)N6C(=O)[C@@H](NC(=O)OC)C(C)C)[nH]c5c4)ccc2-3)[nH]1)C(C)C` ; what AC50 value has been reported?
Result block: > 30 µM

* * *

Catalogue of compounds with associated AC50
Molecular target: Muscarinic acetylcholine receptor M2 (Homo sapiens, UniProt P08172); further: assay procedure not described here
Sequence (P08172 whole entry): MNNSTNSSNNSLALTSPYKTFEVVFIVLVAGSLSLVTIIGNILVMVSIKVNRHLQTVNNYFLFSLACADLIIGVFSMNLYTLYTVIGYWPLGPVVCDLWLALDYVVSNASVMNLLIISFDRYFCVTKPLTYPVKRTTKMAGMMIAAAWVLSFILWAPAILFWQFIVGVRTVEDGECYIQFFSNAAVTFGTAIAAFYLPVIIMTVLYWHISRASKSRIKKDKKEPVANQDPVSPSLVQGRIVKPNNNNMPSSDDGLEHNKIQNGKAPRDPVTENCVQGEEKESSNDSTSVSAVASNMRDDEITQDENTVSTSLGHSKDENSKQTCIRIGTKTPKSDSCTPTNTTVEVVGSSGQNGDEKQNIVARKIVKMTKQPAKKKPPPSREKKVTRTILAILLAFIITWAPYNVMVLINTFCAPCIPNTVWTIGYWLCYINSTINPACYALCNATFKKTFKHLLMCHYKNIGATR
Format: functional, cell-based

Compound: COc1ccc2c3c1O[C@H]1C(=O)CC[C@H]4[C@@H](C2)N(C)CC[C@]314 [HYDROCODONE]
AC50: > 10 µM

Query block: Suppose we examine the compound `CN1CCC(=C2c3ccccc3CC(=O)c3sccc32)CC1` ; what AC50 value has been reported?
Result block: 1.9 µM

Query block: Suppose we examine the compound `COc1ccc(-n2nc(C(N)=O)c3c2C(=O)N(c2ccc(N4CCCCC4=O)cc2)CC3)cc1` ; what AC50 value has been reported?
Result block: > 30 µM

* * *

Target: Muscarinic acetylcholine receptor M1 (Homo sapiens, UniProt P11229)
Format: functional
Catalogue of compounds with associated AC50

Query block: Suppose we examine the compound CC(C(=O)O)c1ccc(C(=O)c2ccccc2)s1 (stereo unspecified) ; what AC50 value has been reported?
Result block: > 10 µM

Query block: Suppose we examine the compound `CO[C@@H]1[C@@H](OC(N)=O)[C@@H](O)[C@H](Oc2ccc3c(O)c(NC(=O)c4ccc(O)c(CC=C(C)C)c4)c(=O)oc3c2C)OC1(C)C` ; what AC50 value has been reported?
Result block: > 30 µM

Query block: Suppose we examine the compound C[C@@H](O)[C@H]1C(=O)N2C(C(=O)O)=C(SCCN=CN)C[C@H]12 [IMIPENEM ANHYDROUS] ; what AC50 value has been reported?
Result block: 260 µM

* * *

Biological target: 5-hydroxytryptamine receptor 2B (Homo sapiens, UniProt P41595); further: assay procedure not described here
Sequence (P41595 whole entry): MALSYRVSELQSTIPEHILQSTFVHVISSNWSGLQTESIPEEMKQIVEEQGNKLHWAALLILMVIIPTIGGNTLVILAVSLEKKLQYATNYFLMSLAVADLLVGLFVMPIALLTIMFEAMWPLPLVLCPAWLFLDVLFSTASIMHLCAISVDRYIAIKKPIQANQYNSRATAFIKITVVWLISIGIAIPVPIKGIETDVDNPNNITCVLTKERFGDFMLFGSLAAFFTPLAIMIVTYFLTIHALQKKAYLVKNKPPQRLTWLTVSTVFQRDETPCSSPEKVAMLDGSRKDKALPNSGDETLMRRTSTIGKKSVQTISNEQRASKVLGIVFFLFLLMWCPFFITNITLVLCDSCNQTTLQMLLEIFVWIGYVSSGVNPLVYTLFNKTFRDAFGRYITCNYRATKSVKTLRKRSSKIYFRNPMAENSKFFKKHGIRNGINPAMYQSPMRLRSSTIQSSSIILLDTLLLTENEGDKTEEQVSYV
Format: functional, cell-based
Value Kind: AC50

Worked set:
Compound: COc1ccc(-n2nc(C(N)=O)c3c2C(=O)N(c2ccc(N4CCCCC4=O)cc2)CC3)cc1
AC50: > 30 µM

Compound: O=C1CC2(CCCC2)CC(=O)N1CCCCN1CCN(c2ncccn2)CC1
AC50: > 10 µM

Compound: CCOC(=O)O[C@]1(C(=O)COC(=O)CC)CC[C@H]2[C@@H]3CCC4=CC(=O)C=C[C@]4(C)[C@H]3[C@@H](O)C[C@@]21C [PREDNICARBATE]
AC50: > 10 µM

Compound: C[C@H](Cn1cnc2c(N)ncnc21)OCP(=O)(O)O [TENOFOVIR ANHYDROUS]
AC50: > 30 µM

Compound: OCC(CO)N[C@H]1C[C@](O)(CO)[C@@H](O)[C@H](O)[C@H]1O
AC50: > 30 µM

Compound: C=CC1=C(C(=O)O)N2C(=O)[C@@H](NC(=O)/C(=N\O)c3csc(N)n3)[C@H]2SC1
AC50: > 10 µM

Compound: CN1C2CCCC1CC(NC(=O)c1nn(C)c3ccccc13)C2 (stereo not given)
AC50: > 10 µM

Compound: COc1cc2c(cc1OC)C1CC(=O)C(CC(C)C)CN1CC2 (stereo not given)
AC50: > 30 µM

Query block: Suppose we examine the compound OCC(O)COc1ccc(Cl)cc1 (stereo not given) ; what AC50 value has been reported?
Result block: > 10 µM

Query block: Suppose we examine the compound CCN(CCO)CCCC(C)Nc1ccnc2cc(Cl)ccc12 (stereo not given) [HYDROXYCHLOROQUINE] ; what AC50 value has been reported?
Result block: > 10 µM
